- experimental_details: Mouse hepatocyte metabolic stability
- Format: in vitro ADME
- Set-up: unit not given here
- measurement_context: mouse hepatocytes
The reader will find reported k (elimination constant) values listed item by item below.
I'd appreciate a reply containing only the number, no unit.

O=C(c1sccc1Cl)N1CCCC1c1ccccc1-c1cccc(O)c1 (stereo not drawn) = 0.22
Cc1ccsc1C(=O)N(CC(C)C)c1cccc(N(C)Cc2c[nH]cn2)c1 = 0.02
O=C(C(c1ccccc1)n1cnc2[nH]ncc2c1=S)N1CCCCCC1 (stereo not drawn) [AG18051, reference compound] = 0.11
CC(C)CN(C(=O)c1ccccc1F)c1cccc(N(C)Cc2cnc[nH]2)c1 = 0.013
COc1cccc(-c2ccccc2C2CCCN2C(=O)c2[nH]ncc2Cl)c1 (stereo not drawn) = 0.13
O=C(c1sccc1Cl)N1CCC[C@H]1c1ccccc1-c1cc(O)ccc1F = 0.17
CC(C)CN(C(=O)c1c(F)cccc1F)c1cccc(N(C)Cc2c[nH]cn2)c1 = 0.018
Cc1nc[nH]c1CN(C)c1cccc(N(CC(C)C)C(=O)c2ccccc2F)c1 = 0.11

Here's the next entry for you.
Exercise: Request the reported k (elimination constant) associated with `Cc1ccc(C(=O)N(CC(C)C)c2cccc(N(C)Cc3c[nH]cn3)c2)c(F)c1`
Solution: 0.012

---

- Test system: HEK293 cells overexpressing 17β-HSD10
- experimental_details: Alamar Blue cell viability assay
- Assay type: cell-based, human
- measurement_context: 50 μM compound, 24 h, n = 3 ± SD
The reader will find reported Alamar Blue % viability (50 μM dose) values listed item by item below.
Expressed in %, but write only the number.

Here is how some compounds turned out for Alamar Blue % viability (50 μM dose).
O=C(c1sccc1Cl)N1CCCC1c1ccccc1-c1ccc(F)c(O)c1 (centres unmarked) [ESC1002838] = 94.28
COc1cccc(-c2ccccc2C2CCCN2C(=O)c2sccc2C)c1 (centres unmarked) [ESC1002421] = 102.63
Cc1ncc(CN(C)c2cccc(N(CC(C)C)C(=O)c3ccccc3F)c2)[nH]1 [ESC1002203] = 82.98

Exercise: Request the reported Alamar Blue % viability (50 μM dose) associated with COc1ccc(-c2ccccc2[C@H]2CCCN2C(=O)c2sccc2C)cn1 [ESC1002162]
Solution: 78.79

Exercise: Note, next up: Cc1ccsc1C(=O)N(CC(C)C)c1cccc(N(C)Cc2c[nH]cn2)c1 [ESC1002597]
Solution: 78.78

---

The reader will find reported LDH % toxicity (50 μM dose) values listed item by item below.
- Tested on: HEK293 cells overexpressing 17β-HSD10
- experimental_details: LDH cytotoxicity assay
- Type: cell-based, human
- measurement_context: 50 μM compound, 24 h, n = 3 ± SD
Expressed in %, but write only the number.

Here is how some molecules turned out for LDH % toxicity (50 μM dose).
COc1cccc(-c2ccccc2C2CCCN2C(=O)c2sccc2C)c1 (stereo not drawn) [ESC1002421] = 5.16
COc1ccc(C(=O)N(CC(C)C)c2cccc(N(C)Cc3cnc[nH]3)c2)cc1 [ESC1002182] = 4.73
O=C(c1sccc1Cl)N1CCCC1c1ccccc1-c1cccc(O)c1 (stereo not drawn) [ESC1002755] = 5.47
CC(C)CN(C(=O)C1CCCCC1)c1cccc(N(C)Cc2cnc[nH]2)c1 [ESC1002166] = 4.55
O=C(c1sccc1Cl)N1CCCC1c1ccccc1-c1ccc(F)c(O)c1 (stereo not drawn) [ESC1002775] = 2.54

Exercise: Request the reported LDH % toxicity (50 μM dose) associated with O=C(c1sccc1Cl)N1CCCC1c1ccccc1-c1ccc(F)c(O)c1 (stereo not drawn) [ESC1002838]
Solution: 5.58

Exercise: Note, next up: COc1ccc(-c2ccccc2[C@@H]2CCCN2C(=O)c2sccc2C)cc1 [ESC1002089]
Solution: 5.40

Exercise: Note, next up: COc1cccc(-c2ccccc2C2CCCN2C(=O)c2sccc2Cl)c1 (stereo not drawn) [ESC1002606]
Solution: 5.09

Exercise: Note, next up: CC(C)CN(C(=O)c1ccccc1F)c1cccc(N(C)Cc2ccn[nH]2)c1 [ESC1002205]
Solution: 5.84

Exercise: Note, next up: Cc1ccc(C(=O)N(CC(C)C)c2cccc(N(C)Cc3c[nH]cn3)c2)c(F)c1 [ESC1002575]
Solution: 4.78

Exercise: Note, next up: COc1ccc(-c2ccccc2C2CCCN2C(=O)c2sccc2C)cc1 (stereo not drawn) [ESC1002332]
Solution: 3.52

Exercise: Note, next up: COc1cccc(-c2ccccc2C2CCCN2C(=O)c2[nH]ncc2Cl)c1 (stereo not drawn) [ESC1002757]
Solution: 5.03

---

The reader will find reported EC50 values listed item by item below.
- experimental_target: 17β-HSD10 (Homo sapiens, UniProt Q99714)
- Construct: Recombinant 17β-HSD10 was expressed and purified as previously described in Aitken et al; made in house
- Sequence (Q99714 whole entry): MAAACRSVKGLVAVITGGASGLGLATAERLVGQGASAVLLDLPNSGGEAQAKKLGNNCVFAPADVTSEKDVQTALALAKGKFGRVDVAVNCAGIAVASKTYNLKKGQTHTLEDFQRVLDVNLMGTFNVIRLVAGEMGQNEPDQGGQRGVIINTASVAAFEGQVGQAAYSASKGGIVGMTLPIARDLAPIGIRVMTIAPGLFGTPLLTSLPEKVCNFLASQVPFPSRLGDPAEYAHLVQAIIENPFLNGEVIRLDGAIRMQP
- experimental_details: (−)-CHANA fluorescence assay of cellular 17β-HSD10 activity
- Type: cell-based
- measurement_context: Table 4, 17β-HSD10 overexpressing HEK293 cells, CHANA fluorescence assay; read-out: cellular 17β-HSD10 activity mean pEC50 (converted)
Expressed in µM, but write only the number.

COc1ccc(C(=O)N(CC(C)C)c2cccc(N(C)Cc3cnc[nH]3)c2)cc1 [ESC1002182] = 1.67
O=C(c1sccc1Cl)N1CCCC1c1ccccc1-c1cc(O)cc(F)c1 (racemic) [ESC1002776] = 0.228
Cc1ncc(CN(C)c2cccc(N(CC(C)C)C(=O)c3ccccc3F)c2)[nH]1 [ESC1002203] = 2.46

Exercise: Request the reported EC50 associated with O=C(c1sccc1Cl)N1CCCC1c1ccccc1-c1cccc(O)c1 (stereo not shown) [ESC1002755]
Solution: 0.028

Exercise: Note, next up: Cc1nc[nH]c1CN(C)c1cccc(N(CC(C)C)C(=O)c2ccccc2F)c1 [ESC1002204]
Solution: 1.36

Exercise: Note, next up: COc1cccc(-c2ccccc2C2CCCN2C(=O)c2sccc2C)c1 (stereo not shown) [ESC1002421]
Solution: 0.671

Exercise: Note, next up: COc1ccc(-c2ccccc2[C@@H]2CCCN2C(=O)c2sccc2C)cc1 [ESC1002089]
Solution: 1.79

Exercise: Note, next up: COc1ccc(-c2ccccc2C2CCCN2C(=O)c2sccc2C)cc1 (stereo not shown) [ESC1002332]
Solution: 7.22

Exercise: Note, next up: O=C(c1sccc1Cl)N1CCC[C@H]1c1ccccc1-c1cc(O)ccc1F [ESC1002842]
Solution: 0.04

Exercise: Note, next up: CC(C)CN(C(=O)C1CCCCC1)c1cccc(N(C)Cc2cnc[nH]2)c1 [ESC1002166]
Solution: 0.976

Exercise: Note, next up: CC(C)CN(C(=O)c1c(F)cccc1F)c1cccc(N(C)Cc2c[nH]cn2)c1 [ESC1002456]
Solution: 0.141

Exercise: Note, next up: COc1ccc(-c2ccccc2[C@H]2CCCN2C(=O)c2sccc2C)cn1 [ESC1002162]
Solution: 1.13

Exercise: Note, next up: Cc1ccsc1C(=O)N(CC(C)C)c1cccc(N(C)Cc2c[nH]cn2)c1 [ESC1002597]
Solution: 0.511

Exercise: Note, next up: COc1cccc(-c2ccccc2C2CCCN2C(=O)c2[nH]ncc2Cl)c1 (stereo not shown) [ESC1002757]
Solution: 0.266

---

- experimental_details: Mouse hepatocyte metabolic stability
- Type: in vitro ADME
- measurement_context: mouse hepatocytes, metabolism category
property_name: Heps category

Here is how some compounds turned out for Heps category.
CC(C)CN(C(=O)c1c(F)cccc1F)c1cccc(N(C)Cc2c[nH]cn2)c1 = high
COc1cccc(-c2ccccc2C2CCCN2C(=O)c2[nH]ncc2Cl)c1 (stereo not drawn) = high
O=C(c1sccc1Cl)N1CCCC1c1ccccc1-c1cccc(O)c1 (stereo not drawn) = high
O=C(c1sccc1Cl)N1CCC[C@H]1c1ccccc1-c1cc(O)ccc1F = high
Cc1ccsc1C(=O)N(CC(C)C)c1cccc(N(C)Cc2c[nH]cn2)c1 = Mod
CC(C)CN(C(=O)c1ccccc1F)c1cccc(N(C)Cc2cnc[nH]2)c1 = mod
O=C(C(c1ccccc1)n1cnc2[nH]ncc2c1=S)N1CCCCCC1 (stereo not drawn) [AG18051, reference compound] = High
Cc1nc[nH]c1CN(C)c1cccc(N(CC(C)C)C(=O)c2ccccc2F)c1 = high

Exercise: Request the reported Heps category associated with `Cc1ccc(C(=O)N(CC(C)C)c2cccc(N(C)Cc3c[nH]cn3)c2)c(F)c1`
Solution: mod

---

- experimental_details: Alamar Blue cell viability assay
- Type: cell-based, human
- measurement_context: human, HEK293 cells overexpressing 17β-HSD10, 50 μM compound, n = 3 ± SD, read-out: Alamar Blue % viability (50 μM dose)
The reader will find reported viability at 24 h, 50 μM values listed item by item below.
Expressed in %, but write only the number.

Here is how some compounds turned out for viability at 24 h, 50 μM.
O=C(c1sccc1Cl)N1CCCC1c1ccccc1-c1cc(O)cc(F)c1 (stereo not shown) [ESC1002801] = 82.5
COc1cccc(-c2ccccc2C2CCCN2C(=O)c2sccc2Cl)c1 (racemic) [ESC1002432] = 80.6
O=C(c1sccc1Cl)N1CCCC1c1ccccc1-c1ccc(F)c(O)c1 (stereo not shown) [ESC1002775] = 81.5
COc1cccc(-c2ccccc2C2CCCN2C(=O)c2sccc2C)c1 (stereo not shown) [ESC1002338] = 83
O=C(c1sccc1Cl)N1CCCC1c1ccccc1-c1cccc(O)c1 (stereo not shown) [ESC1002755] = 85.3

Exercise: Request the reported viability at 24 h, 50 μM associated with COc1ccc(-c2ccccc2C2CCCN2C(=O)c2sccc2C)cc1 (stereo not shown) [ESC1002332]
Solution: 87.7

Exercise: Note, next up: COc1ccc(C(=O)N(CC(C)C)c2cccc(N(C)Cc3cnc[nH]3)c2)cc1 [ESC1002182]
Solution: 85.4

Exercise: Note, next up: O=C(c1sccc1Cl)N1CCC[C@H]1c1ccccc1-c1cccc(O)c1 [ESC1002666]
Solution: 79.3

Exercise: Note, next up: O=C(c1sccc1Cl)N1CCCC1c1ccccc1-c1cc(O)cc(F)c1 (racemic) [ESC1002776]
Solution: 65.6

Exercise: Note, next up: Cc1nc[nH]c1CN(C)c1cccc(N(CC(C)C)C(=O)c2ccccc2F)c1 [ESC1002204]
Solution: 96.7

Exercise: Note, next up: COc1cccc(-c2ccccc2C2CCCN2C(=O)c2sccc2Cl)c1 (stereo not shown) [ESC1002606]
Solution: 78

Exercise: Note, next up: COc1ccc(-c2ccccc2[C@@H]2CCCN2C(=O)c2sccc2C)cc1 [ESC1002089]
Solution: 82

Exercise: Note, next up: O=C(c1sccc1Cl)N1CCC[C@H]1c1ccccc1-c1cc(O)ccc1F [ESC1002842]
Solution: 82.4

Exercise: Note, next up: CC(C)CN(C(=O)C1CCCCC1)c1cccc(N(C)Cc2cnc[nH]2)c1 [ESC1002166]
Solution: 78.9

Exercise: Note, next up: COc1cccc(-c2ccccc2C2CCCN2C(=O)c2[nH]ncc2Cl)c1 (stereo not shown) [ESC1002757]
Solution: 89.5

Exercise: Note, next up: COc1ccc(C(=O)N(CC(C)C)c2cccc(N(C)Cc3c[nH]cn3)c2)c(F)c1 [ESC1002576]
Solution: 79.1

Exercise: Note, next up: CC(C)CN(C(=O)c1c(F)cccc1F)c1cccc(N(C)Cc2c[nH]cn2)c1 [ESC1002456]
Solution: 79.2

Exercise: Note, next up: Cc1ccc(C(=O)N(CC(C)C)c2cccc(N(C)Cc3c[nH]cn3)c2)c(F)c1 [ESC1002575]
Solution: 92.6

Exercise: Note, next up: CC(C)CN(C(=O)c1ccccc1F)c1cccc(N(C)Cc2ccn[nH]2)c1 [ESC1002205]
Solution: 82.5
